test system: MUSK; settings: concentration: 1 μM, replicates: in singlicate; n = 1;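 note: KINOMEscan kinase panel screen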
ENDPOINT_NAME: %Inh (%)
Numbers only, in %.

INSERT INTO measurements (compound, observed_result) VALUES
  ('Cl.Cl.NCC(C(=O)Nc1cc(Br)c(-c2ccnc3[nH]ccc23)s1)c1ccccc1 (centres unmarked)', 1),
  ('COc1ccc(-c2coc3ccc(-c4nnc(SCc5ccc(OC)c(C(F)(F)F)c5)o4)cc23)cc1', 1),
  ('COc1cc(Nc2nccc(N3CCC(NC(=O)Nc4cccc(C(C)=O)c4)C3)n2)cc(OC)c1OC (centres unmarked)', 18),
  ('Clc1ccc(-c2nn3ncccc3c2-c2ccnc(Nc3ccc4c(c3)OCCO4)n2)cc1', 0),
  ('CC(C)c1nc(-c2cccc(NS(=O)(=O)c3c(F)cccc3F)c2F)c(-c2ccnc(Nc3ccc(N4CCOCC4)nc3)n2)s1', 10),
  ('O=C(NC1CCN(c2ccnc(Nc3ccc(F)cc3)n2)C1)c1cc2ccccc2s1 (centres unmarked)', 21),
  ('Oc1cc(Nc2ccnc3cc(I)ccc23)ccc1F', 5);

Query :: Could you tell me which %Inh is on file for COCCOCCOc1cc2ncc3c4ccc(C#N)cc4[nH]c3c2cc1OC ?
Result :: 6

====

Kindly state %Inh for each of the entries shown.
tested on: ERK4; construct: gene MAPK4; conditions: concentration: 1 μM, replicates: in singlicate; n = 1
Answers are plain numbers, in %.

The cases that follow already have their %Inh on record.
INSERT INTO results (molecule, endpoint_name, observed_result) VALUES
  ('Cn1cc(-c2[nH]c3cc(NC(=O)[C@H](N)C4CCCCC4)cc4c3c2C=NNC4=O)cn1', '%Inh', 6),
  ('Cl.NC(=O)c1cccc(Nc2nccc(Nc3ccc(Oc4c(Cl)cccc4Cl)c(Cl)c3)n2)c1 [GW659009]', '%Inh', 0),
  ('COc1ccc(-c2coc3ccc(-c4nnc(SCc5ccc(OC)c(C(F)(F)F)c5)o4)cc23)cc1', '%Inh', 3);

// next item, %Inh requested
Query :: Value wanted: %Inh (ERK4) of entry COc1ccc(CNC(=O)NC2CCN(c3ccnc(Nc4ccc(F)cc4)n3)CC2)cc1 [GSK1379788]
Result :: 0

====

system: DAPK2; conditions: concentration: 1 μM, replicates: in singlicate; n = 1
Exercise: state measured %Inh for each of the compounds provided.
Answers are plain numbers, in %.

Here is how some compounds turned out for %Inh.
INSERT INTO results (compound, observed_result) VALUES
  ('O=C(Nc1cccc(-c2nn3ccccc3c2-c2ccnc(Nc3cccc(C(F)(F)F)c3)n2)c1)c1c(F)cccc1F [GSK292658]', 0),
  ('Cl.c1ccc(-c2ccc3c(Nc4ccc5[nH]ncc5c4)ccnc3c2)nc1 [GW440137]', 0),
  ('COc1cccc(-c2ccc3c(NC(=O)C4CC4)n[nH]c3n2)c1 [SB-710903]', 0),
  ('COc1cc(Nc2nccc(-c3c(-c4cccc(NC(=O)c5c(F)cccc5F)c4)nn4ncccc34)n2)cc(OC)c1OC [GSK327238]', 0),
  ('COc1cc(Nc2nccc(-c3c(-c4cccc(NC(=O)c5c(F)cccc5F)c4)nn4ccccc34)n2)cc(OC)c1OC [GSK323521]', 22),
  ('CN(C)S(=O)(=O)c1cc(-c2ccc3nccc(-c4cccc(S(N)(=O)=O)c4)c3c2)cnc1N [GSK1669921]', 8),
  ('CCc1ccc(-c2ccc3c(c2)-c2c(cnn2C)S(=O)(=O)N3C)cc1', 0),
  ('Cl.Cl.NCC(C(=O)Nc1cc(Br)c(-c2ccnc3[nH]ccc23)s1)c1ccccc1 (centres unmarked) [GSK1269851]', 0),
  ('O=C(Nc1n[nH]c2nc(-c3ccc(O)cc3)ccc12)C1CC1 [SB-710363]', 0),
  ('Nc1ncc(-c2cccnc2)c2scc(-c3ccc4c(c3)CCN4C(=O)Cc3ccccc3)c12 [GSK683281]', 0);

Quick request: %Inh for each listed item, please.
1. O=C(Nc1ccccc1F)NC1CCN(c2ccnc(Nc3ccc(F)cc3)n2)CC1 [GSK1379800]
2. Nc1ncnc2c1nc(-c1ccccc1)n2-c1ccccc1 [SKF-97293]
3. COc1cc(Nc2nccc(N3CCC(NC(=O)Nc4cccc(C(C)=O)c4)C3)n2)cc(OC)c1OC (centres unmarked) [GSK1379753]
4. Cl.NC(=O)c1cccc(Nc2nccc(Nc3ccc(Oc4c(Cl)cccc4Cl)c(Cl)c3)n2)c1 [GW659009]
5. FC(F)(F)c1ccc(/C=C/c2cncnc2Nc2ccc3[nH]c(Cc4ccccc4)nc3c2)cc1 [GW709199]
6. Cc1ccc(F)c(C(=O)Nc2cccc(-c3nn4ccccc4c3-c3ccnc(Nc4cccc(F)c4)n3)c2)c1F [GSK361061]

Result ::
1: 0; 2: 0; 3: 0; 4: 8; 5: 0; 6: 10

Query :: Entry under review: Fc1ccc(-c2ncn(C3CCNCC3)c2-c2ccnc(Oc3ccc(-c4ccccc4)cc3)n2)cc1 [SB-245391] . Reported %Inh?
Result :: 5

====

tested on: SRPK3; settings: concentration: 1 μM, replicates: in singlicate; n = 1
ENDPOINT_NAME: %Inh

I have 5 compounds here; please give me %Inh for each one.
1. Cc1cccc(NC(=O)Nc2ccc(Oc3ncnc4ccn(C)c34)cc2)c1
2. c1ccc(Oc2ccc(Nc3ccnc4cc(-c5ccc(CNCCN6CCOCC6)o5)ccc34)cc2)nc1 [GW567145]
3. COc1ccc(CNC(=O)NC2CCN(c3ccnc(Nc4ccc(F)cc4)n3)CC2)cc1 [GSK1379788]
4. COc1cccc(-c2ccc3c(NC(=O)C4CC4)n[nH]c3n2)c1 [SB-710903]
5. Cl.c1ccc(-c2ccc3c(Nc4ccc5[nH]ccc5c4)ccnc3c2)nc1 [GW440138]

Result ::
1: 0%; 2: 0%; 3: 0%; 4: 0%; 5: 0%

====

Assignment: determine reported %Inh for the given molecules.
tested on: DAPK1; details: concentration: 1 μM, replicates: in singlicate; n = 1
The answer consists of two parts: a number and, after it, its unit.

// worked examples, %Inh included
INSERT INTO measurements (smiles_input, observed_result) VALUES
  ('COc1ccc(-c2coc3ccc(-c4nnc(SCc5ccc(OC)c(C(F)(F)F)c5)o4)cc23)cc1', '15%'),
  ('CNC(=O)c1ccccc1Nc1nc(Nc2ccc(N3CCOCC3)cc2)ncc1Cl.Cl', '95%'),
  ('COc1ccc(Nc2nccc(NCCNC(=O)c3cc4ccccc4s3)n2)cc1', '4%');

Would you mind listing %Inh for each of the following molecules?
1. CN1CCN(Cc2cccc(-c3ccc4c(Nc5ccc(Oc6ccccc6)cc5)ccnc4c3)c2)CC1
2. Cc1ccc(S(=O)(=O)Nc2ccc(Nc3nccc(Nc4cccc5[nH]ncc45)n3)cc2)cc1
3. COc1cc(Nc2nccc(-c3c(-c4cccc(NC(=O)c5c(F)cccc5F)c4)nn4ccccc34)n2)cc(OC)c1OC
4. CN(C)Cc1ccc(-c2ccc3c(Nc4ccc(Oc5ccccn5)cc4)ccnc3c2)o1
5. c1ccc(Oc2ccc(Nc3ccnc4cc(-c5ccc(CNCCN6CCOCC6)o5)ccc34)cc2)nc1

Result ::
100%
0%
0%
0%
0%

====

For each entry below, report its %Inh value.
system: CDKL5; conditions: concentration: 1 μM, replicates: in singlicate; n = 1
One number for each entry, in %.

Worked set:
INSERT INTO measurements (compound, observed_result) VALUES
  ('COc1cccc(-c2ccc3c(NC(=O)C4CC4)n[nH]c3n2)c1 [SB-710903]', 0),
  ('Cn1cc(-c2ccc3c(c2)CCN3C(=O)Cc2cccc(Cl)c2)c2c(N)ncnc21 [GSK2606590]', 4),
  ('CC(C)c1nc(-c2cccc(NS(=O)(=O)c3c(F)cccc3F)c2F)c(-c2ccnc(Nc3ccc(N4CCOCC4)nc3)n2)s1 [GSK2008607]', 90.2);

Quick request: %Inh for each listed item, please.
1. Cc1ccc(S(=O)(=O)Nc2ccc(Nc3nccc(Nc4cccc5[nH]ncc45)n3)cc2)cc1 [GSK581271]
2. O=C(Nc1n[nH]c2cc(-c3ccoc3)ccc12)C1CC1 [SB-738481]
3. Cc1occc1-c1ncc(OC[C@@H](N)Cc2c[nH]c3ccccc23)cc1-c1ccc2[nH]nc(C)c2c1.O=C(O)C(F)(F)F [GSK682037]

Result ::
1: 0; 2: 50; 3: 0

====

test system: GSK3A; conditions: concentration: 1 μM, replicates: in singlicate; n = 1
ENDPOINT_NAME: %Inh (%)
Numbers only, in %.

Worked cases, %Inh given:
INSERT INTO assay_data (compound, endpoint_name, observed_result) VALUES
  ('Cc1ccc(F)c(C(=O)Nc2cccc(-c3nn4ccccc4c3-c3ccnc(Nc4cccc(F)c4)n3)c2)c1F [GSK361061]', '%Inh', 12),
  ('O=C(NC1CCN(c2ccnc(Nc3ccc(F)cc3)n2)C1)c1cc2ccccc2s1 (stereo not drawn) [GSK1379716]', '%Inh', 0),
  ('Cl.Cl.NCC(NC(=O)c1cc(-c2ccccc2)c(-c2ccnc3[nH]ccc23)s1)c1ccccc1 (stereo not drawn) [GSK1321561]', '%Inh', 31),
  ('c1ccc(-c2cnc3nccnn23)cc1 [AH20685]', '%Inh', 0),
  ('O=C(Nc1ccccc1F)NC1CCN(c2ccnc(Nc3ccc(F)cc3)n2)CC1 [GSK1379800]', '%Inh', 5),
  ('O=c1[nH]cc(-c2ccc(N3CCOCC3)cc2)c2sc(-c3cn[nH]c3)cc12 [GSK2276055]', '%Inh', 97.7),
  ('O=C(Nc1cccc(-c2nn3ccccc3c2-c2ccnc(Nc3cccc(F)c3)n2)c1)c1c(F)ccc(F)c1Cl [GSK357952]', '%Inh', 0),
  ('NCCCC(NC(=O)c1cc(Br)c(-c2ccnc3[nH]ccc23)s1)c1ccccc1.O=C(O)C(F)(F)F.O=C(O)C(F)(F)F (stereo not drawn) [GSK1287544]', '%Inh', 0);

Give %Inh for each listed item.
1. COc1ccc(CNC(=O)NC2CCN(c3ccnc(Nc4ccc(F)cc4)n3)CC2)cc1 [GSK1379788]
2. Cl.NC(=O)c1cccc(Nc2nccc(Nc3ccc(Oc4c(Cl)cccc4Cl)c(Cl)c3)n2)c1 [GW659009]
3. CNC(=O)c1ccccc1Nc1nc(Nc2ccc(N3CCOCC3)cc2)ncc1Cl.Cl [GSK1576028]
4. Oc1cc(Nc2ccnc3cc(I)ccc23)ccc1F [GW552771]

Result ::
[2, 0, 76, 17]

Could you tell me %Inh for each of these compounds? They are listed below.
1. Nc1ncnc2c1nc(-c1ccccc1)n2-c1ccccc1 [SKF-97293]
2. Cc1ccc(C(=O)Nc2ccc(Nc3ccnc4cc(-c5nccs5)ccc34)cc2O)cc1.Cl [GW494702]
3. COc1cccc(NC(=O)NC2CCN(c3ccnc(Nc4cc(OC)c(OC)c(OC)c4)n3)C2)c1 (stereo not drawn) [GSK1379763]
4. Cn1cc(-c2ccc3c(c2)CCN3C(=O)Cc2cccc(Cl)c2)c2c(N)ncnc21 [GSK2606590]

Result ::
1. 0
2. 0
3. 0
4. 5
